Tested on: U2OS
Experiment: Multiplex assay against U2OS
Type: toxicity, cell-based
Conditions: human, 12 h, 1 µM, compound concentration 1 uM, replicate 1
quantityMeasured: Population Tubulin-Different-Phenotype (%)
// note: answer is a bare numeric in %

Value (Population Tubulin-Different-Phenotype (%), U2OS) for record Cc1c(CC(=O)O)c2cccnc2n1Cc1ccc(S(C)(=O)=O)cc1C(F)(F)F [FEVIPIPRANT] = 0

Value (Population Tubulin-Different-Phenotype (%), U2OS) for record N#Cc1c(Oc2cccc(OS(=O)(=O)CCCC(F)(F)F)c2)cccc1C(F)(F)F = 0

Value (Population Tubulin-Different-Phenotype (%), U2OS) for record Cl.NCCc1ccc(O)c(O)c1 [DOPAMINE HYDROCHLORIDE] = 2

Value (Population Tubulin-Different-Phenotype (%), U2OS) for record CCCCC1=NC2(CCCC2)C(=O)N1Cc1ccc(-c2ccccc2-c2nnn[nH]2)cc1 [IRBESARTAN] = 1

Value (Population Tubulin-Different-Phenotype (%), U2OS) for record CC[C@@H](C)Nc1nc(C)nc2c(-c3ccc(OC)nc3C)c(C)nn12 [PEXACERFONT] = 2

Value (Population Tubulin-Different-Phenotype (%), U2OS) for record CCCCC(=O)N(Cc1ccc(-c2ccccc2-c2nnn[nH]2)cc1)[C@H](C(=O)O)C(C)C = 4

Value (Population Tubulin-Different-Phenotype (%), U2OS) for record Cc1onc(-c2ccccc2Cl)c1C(=O)N(C)c1ccc(Cl)cc1 = 1

Value (Population Tubulin-Different-Phenotype (%), U2OS) for record COc1cccc2c1c(NS(=O)(=O)c1ccc(Cl)s1)nn2Cc1cccc(CNC(=O)C(C)(C)O)c1 = 1

Value (Population Tubulin-Different-Phenotype (%), U2OS) for record Br.CS(=O)(=O)Nc1c(O)ccc2c1CCCC2C1=NCCN1 (centres undefined) = 2
